Target: FAAH (Homo sapiens (Human), UniProt O00519)
Test: biochemical
Conditions: read-out: FAAH (human) IC50

{"molecule": "NC(=O)c1cncc(OC(=O)N2CCC3(CCN(Cc4cc(Cl)ccc4C(F)(F)F)C3)CC2)c1 [Example 4]", "IC50": "< 100 nM"}
{"molecule": "Cc1ncc(C#N)cc1OC(=O)N1CCN(Cc2cccc(C(F)(F)F)c2C)C[C@H]1C [Example 21]", "IC50": "100 to 1000 nM"}
{"molecule": "O=C(Oc1cncc(C(F)(F)F)c1)N1CCC2(CC1)CN(Cc1cccc(Oc3cccc(Cl)c3)c1)C2 [Example 10]", "IC50": "< 100 nM"}
{"molecule": "CC1CCCN1c1ccc(CN2CCN(C(=O)Oc3cncc(C(N)=O)c3)CC2)c(OC(F)(F)F)c1 (stereo not shown) [Example 17]", "IC50": "100 to 1000 nM"}
{"molecule": "O=C(Oc1cncc(C(F)(F)F)c1)N1CCC2(CC1)CC(Oc1cccc(C(=O)N3CCCC3)c1)C2 [Example 26]", "IC50": "100 to 1000 nM"}
{"molecule": "O=C(Oc1cncc(C(F)(F)F)c1)N1CCC2(CC1)CC(Oc1cccc(C(F)(F)F)c1)C2 [Example 1]", "IC50": "< 100 nM"}
{"molecule": "C[C@@H]1CN(Cc2cc(F)cc(C(F)(F)F)c2)CCN1C(=O)Oc1cncc(C(N)=O)c1 [Example 20]", "IC50": "< 100 nM"}
{"molecule": "O=C(Oc1cncc(C(F)(F)F)c1)N1CCN(Cc2cc(Cl)ccc2C(F)(F)F)CC1 [Example 44]", "IC50": "100 to 1000 nM"}
{"molecule": "CC(=O)Nc1cncc(OC(=O)N2CCN(Cc3ccc(Cl)c(OC(C)C)c3)CC2)c1 [Example 52]", "IC50": "100 to 1000 nM"}
{"molecule": "O=C(Oc1cncc(C(F)(F)F)c1)N1CCC2(CC1)CN(Cc1cccc(Oc3ccc(C(F)(F)F)nc3)c1)C2 [Example 39]", "IC50": "100 to 1000 nM"}
{"molecule": "CC(C)Oc1cc(CN2CCN(C(=O)Oc3cncc(C(N)=O)c3)[C@H](C)C2)ccc1Cl [Example 56]", "IC50": "100 to 1000 nM"}
{"molecule": "O=C(Oc1cncc(C(F)(F)F)c1)N1CCC2(CC1)CN(Cc1cc(Cl)cc(Oc3nc4ccccc4s3)c1)C2 [Example 23]", "IC50": "< 100 nM"}
{"molecule": "N#Cc1cncc(OC(=O)N2CCN(Cc3cccc(Oc4ncccn4)c3)CC2)c1 [Example 50]", "IC50": "100 to 1000 nM"}
{"molecule": "O=C(Oc1cncc(C(F)(F)F)c1)N1CCC2(CC1)CN(Cc1cccc(Oc3cncnc3)c1)C2 [Example 11]", "IC50": "100 to 1000 nM"}
{"molecule": "O=C(Oc1cncc(C(F)(F)F)c1)N1CCC2(CC1)CN(Cc1cccc(Oc3cncc(C(F)(F)F)c3)c1)C2 [Example 38]", "IC50": "< 100 nM"}
{"molecule": "O=C(Oc1cncc(C(F)(F)F)c1)N1CCC2(CC1)CN(Cc1cccc(Oc3cccc(Cl)c3)c1Cl)C2 [Example 40]", "IC50": "100 to 1000 nM"}
